target: XRCC4 FL (Homo sapiens, UniProt Q13426 1-336); test: tryptophan fluorescence quenching
Sequence (Q13426 whole entry): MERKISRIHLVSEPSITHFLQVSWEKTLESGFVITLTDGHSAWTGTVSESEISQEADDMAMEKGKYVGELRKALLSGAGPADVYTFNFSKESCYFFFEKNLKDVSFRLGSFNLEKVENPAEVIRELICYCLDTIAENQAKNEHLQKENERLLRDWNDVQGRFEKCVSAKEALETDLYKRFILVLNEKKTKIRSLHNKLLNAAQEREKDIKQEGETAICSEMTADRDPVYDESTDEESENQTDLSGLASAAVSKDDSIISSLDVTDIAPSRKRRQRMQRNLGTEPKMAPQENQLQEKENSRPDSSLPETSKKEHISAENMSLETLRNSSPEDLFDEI
pKd: −log10 of the molar value.
OUTCOME MEASURE: pKd

# BINDER, OUTCOME MEASURE, MEAS VALUE
rows = [
    ("40-bp DNA (dsDNA) DNA 1: GGATACACAACAGACCGCAACACTCAGATTACTTTTCGCC DNA 2: GGCGAAAAGTAATCTGAGTGTTGCGGTCTGTTGTGTATCC", "pKd", 6.02),
]
